Assay: protein stability index of a GFP-peptide fusion (yeast GPS) (PSI 1-4); higher = more stable; sorted into four equal gates, so the index is relative within each strain
Conditions: ubr1∆
# protein stability index per record follows

sequence-entry	protein stability index
IHEIRLNTLNNVVEIWV [SIR3]	1.55
RSSRLHIVYSLLVNPDI [YML103C/NUP188]	2.26
RNARAARAAKIAPRPLD [RPL13B]	2.45
VDIVNQWFLQYQNQFVE [YML103C/NUP188]	2.29
ASSKAVTRGISVLKDSD [PRE1]	2.67
FPGKPVDVQAPTDDKTL [YOR098C/NUP1]	2.75
DVVAHRQLAGAIGYEPL [DIS3]	2.19
GDNEYITLRTSGELLQG [MCD1]	3.36
SAASIPPQQTYHFPIFN [RPN4]	2.68
TRRFVNVTLVNGKRRMN [RPS30A]	2.37
GTVGNSHKTTKEDTVSW [RPL11A]	3.12
FYKLNMPDEFNTLYTAI [SRP72]	2.65
TSAIEVLVGSCAYTGTG [RPN1]	3.28
PTFSTHAQLLLSDRITG [PRP8]	1.95
EEIVVVASADYESQTFS [PRP8]	3.3
IKLDRWLMEGSYQKAWD [RPN12]	2.68
RQKKKPTSAQKSAVSHA [IRR1]	1.56
QLGPQTPAFNTAILQRQ [ECM29]	1.67
WMLSICVEWRLPEIAKE [YJR042W/NUP85]	1.67
PHTTLVNECIAQSHQRF [CDC53]	2.98
QQQQQQQQGQIPQSQQV [SNF5]	2.51
EVLLAGFGRKGKAKGDI [RPS23A]	3.22
PHANPITHAHSLSNPNS [PGD1]	2.94
LWRNFCRKLSFSDKVNA [ITC1]	1.37
LAAMAVLESHWKQDLTK [PUP1]	3.71
TRPQMPSRTRETATSER [GRR1]	3.05
AIMSKSSLEELLLKDQQ [ECM29]	2.98
SYVVPRLYLKDQTNHIE [ECM29]	2.15
VIVPLSTLSNWSSEFAK [SNF2]	2.6
KNQLRDWIRFVSTKTNE [RPL22A]	2.61
ANAVQNNNGNSAASKKK [SRP21]	2.93
DIEVPDVNALKFNNTQR [SNF12]	3.09
QPYEDRPFEGLFVISTE [RRP45]	3.05
LYYPQKPLGTTRAMEYL [RPB2]	2.83
MSVDIDKKASMIISGSR [ASC1]	1.99
EQDILDLIAEQVVTDYN [SSN2]	2.47
EMEVDAEGEEVEVKAEI [RPN1]	3.39
NTNNNNSTGHSSNTNNN [SWI1]	1.93
HHNDISNDSQSHFDYNT [YCG1]	2.39
SNADTNQNSDMKKKLEL [SRB8]	3.31
AASWYGSFNEMKRNCGQ [RMP1]	3.21
GQKLLAIKYGYEDSGST [SRB4]	3.25
NNIFKEFTSKIGFTIKE [SMC1]	2.7
KSLDSIPMSKTIKDLVG [FAS2]	3.16
RQSKSSGKSNTSNDASN [ITC1]	3.22
LISNAIYGKKTMVIQDE [ECM29]	1.4
DFLGVASTGSGKTLAFV [PRP28]	3.31
VRMLASPMLYKVPDISS [BRR2]	2.28
QAQAQAQAQAQAQAQAH [GAL11]	3.1
EVYRTSLNTKKNEKLIL [SMC3]	2.35
EEKSNEVKTPKIPLFTF [SIR4]	2.79
KSMNKSAINQYNRRQDK [SNF2]	2.48
PFYGSYTETDPAKVAEE [SRP54]	2.82
PSDWQRNSFIRDMIMKR [ITC1]	2.89
LITTYSKLSKNISFYKL [SIN4]	2.69
EEKKKEHEEKEKERETN [RPN2]	3.44
ASFFFMVMFMHMAKGLY [COB]	1.4
AINPGRVAASFSQEALQ [FAS1]	1.98
NDLDYDLIADTITNSSS [YML103C/NUP188]	3.02
MLVKAVANSTKAAFIRV [RPT3]	1.27
